# Test system: trypsin
# EXPERIMENT: trypsin binding of individual yeast-displayed EETI loop 3 clones by dual-color flow cytometry
# MEASUREMENT CONDITIONS: 25 nM fluorescently-labeled trypsin; adjusted for expression (cMyc), normalized to EETIwt; triplicate
No end group written: not given here.
RECORDED METRIC: trypsin binding level as percentage of EETIwt

>  <SUBSTANCE>
potato carboxypeptidase inhibitor: a knottin that does not bind trypsin; negative control (QQHADPICNKPCKTHDDCSGAWFCQACWNSARTCGPYVG; ends and bridges not checked; cysteine pairing not given here; UniProt P01075 1-39, looked up) [reference compound]

>  <MEASURED VALUE>
< 5%

$$$$
>  <SUBSTANCE>
NTTNNSPGY (disulfide (positions not given here)) [p25, least-similar predicted EETI loop 3 clone, …]

>  <MEASURED VALUE>
approximately 30%

$$$$
>  <SUBSTANCE>
NNTNTGRGY (disulfide (positions not given here)) [p20, least-similar predicted EETI loop 3 clone, …]

>  <MEASURED VALUE>
approximately 30%

$$$$

Data provenance: paper PMC2725296
